Provenance of the data: patent US7087394B2

Target: βTRP (Homo sapiens)
Construct: control line A1-5
Sequence (Q9NZQ8 1-1165): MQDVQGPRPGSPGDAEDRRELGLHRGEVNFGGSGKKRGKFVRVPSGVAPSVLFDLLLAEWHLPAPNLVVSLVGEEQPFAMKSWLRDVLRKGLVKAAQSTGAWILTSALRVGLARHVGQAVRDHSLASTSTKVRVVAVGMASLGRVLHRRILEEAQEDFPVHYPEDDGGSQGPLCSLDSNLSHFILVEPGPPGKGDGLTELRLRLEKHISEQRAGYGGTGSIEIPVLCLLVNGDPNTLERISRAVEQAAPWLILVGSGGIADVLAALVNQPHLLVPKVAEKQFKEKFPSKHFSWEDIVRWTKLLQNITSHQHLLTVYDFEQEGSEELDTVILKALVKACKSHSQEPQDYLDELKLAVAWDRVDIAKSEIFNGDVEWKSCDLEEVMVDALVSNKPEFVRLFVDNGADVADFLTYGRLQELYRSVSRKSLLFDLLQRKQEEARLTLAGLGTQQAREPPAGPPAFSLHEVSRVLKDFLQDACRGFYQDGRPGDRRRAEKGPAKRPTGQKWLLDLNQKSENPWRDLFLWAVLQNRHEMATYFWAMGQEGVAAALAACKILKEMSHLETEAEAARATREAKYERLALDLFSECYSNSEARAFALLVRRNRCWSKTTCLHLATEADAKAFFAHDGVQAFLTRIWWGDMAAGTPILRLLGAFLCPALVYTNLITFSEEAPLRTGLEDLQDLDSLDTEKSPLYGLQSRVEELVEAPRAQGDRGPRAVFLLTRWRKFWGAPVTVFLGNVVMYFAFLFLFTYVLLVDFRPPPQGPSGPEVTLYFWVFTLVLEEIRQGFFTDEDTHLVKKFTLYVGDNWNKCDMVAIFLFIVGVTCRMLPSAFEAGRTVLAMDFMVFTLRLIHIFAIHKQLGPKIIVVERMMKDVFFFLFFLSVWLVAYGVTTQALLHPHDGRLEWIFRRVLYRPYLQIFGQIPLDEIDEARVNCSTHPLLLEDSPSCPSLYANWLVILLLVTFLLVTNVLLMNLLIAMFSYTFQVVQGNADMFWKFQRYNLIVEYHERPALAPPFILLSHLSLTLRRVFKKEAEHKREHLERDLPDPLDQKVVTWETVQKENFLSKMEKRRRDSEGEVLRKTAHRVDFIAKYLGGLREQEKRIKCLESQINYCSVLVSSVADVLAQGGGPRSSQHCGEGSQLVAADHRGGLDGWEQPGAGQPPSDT
Assay: Membrane potential (MP) assay in βTRP-CHO cells, FLEXStation with Membrane Potential Dye
Details: βTRP-CHO cells, membrane potential; read-out: estimated EC50 of depolarization
pEC50: −log10 of the molar value.
property-name: pEC50

1) CNc1ccc2oc(C[C@H]3O[C@@]4(CC[C@H]3C)O[C@H]([C@H](C)C(=O)c3ccc[nH]3)[C@H](C)C[C@H]4C)nc2c1C(=O)O [calcimycin, Calcimycin]	~6.10
2) Nc1ncnc2c1ncn2[C@@H]1O[C@H](COP(=O)(O)OP(=O)(O)OP(=O)(O)O)[C@@H](O)[C@H]1O [ATP]	~4.96
